conditions: in methanol, 283.15 K
Measured Property: solubility (mole fraction)

N#Cc1ccncc1 : 0.0504

====

details: in acetone, 308.15 K
Measured Property: solubility (mole fraction)

N#Cc1ccncc1 : 0.351

====

details: in water, 308.15 K
Measured Property: solubility (mole fraction)

N#Cc1ccncc1 : 0.00875

====

details: in ethanol, 288.15 K
Measured Property: solubility (mole fraction)

N#Cc1ccncc1 : 0.035

====

conditions: in ethanol, 298.15 K
Measured Property: solubility (mole fraction)

N#Cc1ccncc1 : 0.073

====

conditions: in water, 293.15 K
Measured Property: solubility (mole fraction)

N#Cc1ccncc1 : 0.00494

====

conditions: in ethanol, 278.15 K
Measured Property: solubility (mole fraction)

N#Cc1ccncc1 : 0.0165

====

details: in n-propanol, 308.15 K
Measured Property: solubility (mole fraction)

N#Cc1ccncc1 : 0.184

====

conditions: in acetone, 313.15 K
Measured Property: solubility (mole fraction)

N#Cc1ccncc1 : 0.398

====

conditions: in methanol, 308.15 K
Measured Property: solubility (mole fraction)

N#Cc1ccncc1 : 0.179

====

details: in acetone, 278.15 K
Measured Property: solubility (mole fraction)

N#Cc1ccncc1 : 0.162

====

conditions: in acetone, 303.15 K
Measured Property: solubility (mole fraction)

N#Cc1ccncc1 : 0.318

====

conditions: in ethanol, 308.15 K
Measured Property: solubility (mole fraction)

N#Cc1ccncc1 : 0.142

====

conditions: in n-propanol, 293.15 K
Measured Property: solubility (mole fraction)

N#Cc1ccncc1 : 0.0926

====

details: in ethanol, 293.15 K
Measured Property: solubility (mole fraction)

N#Cc1ccncc1 : 0.0506

====

conditions: in n-propanol, 318.15 K
Measured Property: solubility (mole fraction)

N#Cc1ccncc1 : 0.303

====

settings: in methanol, 303.15 K
Measured Property: solubility (mole fraction)

N#Cc1ccncc1 : 0.139

====

conditions: in water, 303.15 K
Measured Property: solubility (mole fraction)

N#Cc1ccncc1 : 0.00727

====

details: in ethanol, 303.15 K
Measured Property: solubility (mole fraction)

N#Cc1ccncc1 : 0.101

====

conditions: in water, 318.15 K
Measured Property: solubility (mole fraction)

N#Cc1ccncc1 : 0.0123

====

conditions: in acetone, 298.15 K
Measured Property: solubility (mole fraction)

N#Cc1ccncc1 : 0.281

====

conditions: in methanol, 313.15 K
Measured Property: solubility (mole fraction)

N#Cc1ccncc1 : 0.225

====

details: in acetone, 288.15 K
Measured Property: solubility (mole fraction)

N#Cc1ccncc1 : 0.217

====

details: in n-propanol, 283.15 K
Measured Property: solubility (mole fraction)

N#Cc1ccncc1 : 0.0556

====

conditions: in acetone, 283.15 K
Measured Property: solubility (mole fraction)

N#Cc1ccncc1 : 0.186

====

conditions: in water, 313.15 K
Measured Property: solubility (mole fraction)

N#Cc1ccncc1 : 0.0104

====

details: in methanol, 288.15 K
Measured Property: solubility (mole fraction)

N#Cc1ccncc1 : 0.0656

====

conditions: in n-propanol, 278.15 K
Measured Property: solubility (mole fraction)

N#Cc1ccncc1 : 0.042

====

conditions: in water, 298.15 K
Measured Property: solubility (mole fraction)

N#Cc1ccncc1 : 0.00603

====

conditions: in n-propanol, 288.15 K
Measured Property: solubility (mole fraction)

N#Cc1ccncc1 : 0.0718
